System Tested: GDP-bound KRAS wild-type protein (Homo sapiens, UniProt P01116)
Sequence (P01116 whole entry): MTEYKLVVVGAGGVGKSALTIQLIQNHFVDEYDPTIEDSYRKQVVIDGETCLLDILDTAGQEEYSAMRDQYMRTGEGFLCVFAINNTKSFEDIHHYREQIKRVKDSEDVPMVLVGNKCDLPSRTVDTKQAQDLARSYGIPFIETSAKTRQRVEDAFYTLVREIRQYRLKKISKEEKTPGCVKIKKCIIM
Experimental Details: Binding to KRAS by surface plasmon resonance (SPR), Single Cycle Kinetics
Details: SPR, Single Cycle Kinetics, GDP-bound KRAS wild-type protein; read-out: KRAS KD
Measurement Label: pKd
# log scale: pKd equals minus log10 of the concentration in mol/L

See these solved cases before continuing.
>>> reported_result("CC[C@H](C)[C@@H]1NC(=O)[C@H](CC(C)C)N(C)C(=O)CSC[C@H](C(=O)N(C)C)N(C)C(=O)[C@H](C2CCCC2)N(C)C(=O)C2(CCCC2)NC(=O)[C@@H]2CCCN2C(=O)[C@H](CCc2cc(F)c(C(F)(F)F)c(F)c2)NC(=O)CN(C)C(=O)[C@H](Cc2ccc(C(F)(F)F)cc2)N2CC/C=C\\C[C@@H](C2=O)N(C)C(=O)CN(C)C1=O")
5.52
>>> reported_result("CCO[C@@H]1C[C@H]2C(=O)NC3(CC(C)(C)C3)C(=O)N(C)[C@@H](C3CCCC3)C(=O)N(C)[C@H](C(=O)N(C)C)CC(=O)N(C)[C@@H](CC(C)C)C(=O)N[C@@H]([C@@H](C)CC)C(=O)N(C)CC(=O)N(C)[C@H]3C/C=C\\CCN(C3=O)[C@@H](Cc3ccc(C(F)(F)F)cc3)C(=O)N(C)CC(=O)N[C@@H](CCc3cc(F)c(C(F)(F)F)c(F)c3)C(=O)N2C1")
10.24

q: Given the entry `CCO[C@@H]1C[C@H]2C(=O)NC3(CC(C)(C)C3)C(=O)N(C)[C@@H](C(CC)CC)C(=O)N(C)[C@H](C(=O)N(C)C)CC(=O)N(C)[C@@H](CC3CCC3)C(=O)N[C@@H]([C@@H](C)CC)C(=O)N(C)CC(=O)N(C)[C@H]3C/C=C\CCN(C3=O)[C@@H](Cc3ccc(C(F)(F)F)cc3)C(=O)N(C)CC(=O)N[C@@H](CCc3ccc(C(F)(F)F)c(OC)c3)C(=O)N2C1` , what pKd was observed with GDP-bound KRAS wild-type protein (Homo sapiens, UniProt P01116)?
a: 9.54

###

System Tested: GDP-bound KRAS wild-type protein (Homo sapiens)
Experimental Details: Binding to KRAS by surface plasmon resonance (SPR), Single Cycle Kinetics
Details: SPR Single Cycle Kinetics, GDP-bound KRAS wild-type protein, 1:1 binding model; read-out: KRAS KD
*1 amine or outer side, *2 acyl side, *3 side chain or, on linkers, in order; H or OH if unused. Where a SMILES comes first, the peptide text is derived from it. Bridges are numbered along the chain shown (N, C = ends). [ ]: non-standard residue; d: D form. The star is where a group is joined. hPhe(3-Cl-4-CF3) = N[C@@H](CCc1ccc(C(F)(F)F)c(Cl)c1)C(=O)O; NPrPhe(4-CF3) = CCCN[C@@H](Cc1ccc(C(F)(F)F)cc1)C(=O)O; X7 = CCN([C@H](C(=O)[*:2])C1CCCC1)[*:1]; NMeGly(cPent) = CN[C@H](C(=O)O)C1CCCC1; NMeD = CN[C@@H](CC(=O)O)C(=O)O; NMeL = CN[C@@H](CC(C)C)C(=O)O; Morpholide = C1CN(*)CCO1; NMeA = CN[C@@H](C)C(=O)O; Ac5c = NC1(C(=O)O)CCCC1; Aze = O=C(O)[C@@H]1CCN1; Ac3c = NC1(C(=O)O)CC1; Sar = CNCC(=O)O
Measurement Label: Kd (nM)
Give the value, in units of nM, as a plain number.

>>> reported_result("CCC[C@H]1C(=O)N[C@@H]([C@@H](C)CC)C(=O)N(C)CC(=O)N(C)[C@H]2C/C=C\\CCN(C2=O)[C@@H](Cc2ccc(C(F)(F)F)cc2)C(=O)N(C)CC(=O)N[C@@H](CCc2cc(Cl)c3c(ccn3C)c2)C(=O)N2C[C@H](OCC)C[C@H]2C(=O)NC2(CC(C)(C)C2)C(=O)N(C)[C@@H](C2CCCC2)C(=O)N(C)[C@H](C(=O)N(C)C)CC(=O)N1C")
0.76
>>> reported_result("CCC(CC)[C@H]1C(=O)N(C)[C@H](C(=O)N(C)C)CC(=O)N(C)[C@@H](COC)C(=O)N[C@@H]([C@@H](C)CC)C(=O)N(C)CC(=O)N(C)[C@H]2C/C=C\\CCN(C2=O)[C@@H](Cc2ccc(C)cc2)C(=O)N(C)CC(=O)N[C@@H](CCc2ccc(Cl)c(Cl)c2)C(=O)N2C[C@H](OC3CCCC3)C[C@H]2C(=O)N(C)C2(CC(C)(C)C2)C(=O)N1C")
0.88

q: I am curious: what Kd value has been reported for CC[C@H](C)[C@@H]1NC(=O)[C@H](CC(C)C)N(C)C(=O)C[C@@H](C(=O)N2CCOCC2)N(C)C(=O)[C@H](C2CCCC2)N(C)C(=O)C2(CCCC2)NC(=O)[C@@H]2CCCN2C(=O)[C@H](CCc2ccc(C(F)(F)F)c(Cl)c2)NC(=O)CN(C)C(=O)[C@H](C2CCCC2)N(CC)C(=O)[C@@H]2CCN2C(=O)[C@H](C)N(C)C1=O [PP0003] ([NMeL]I[NMeA][Aze][X7][Sar][hPhe(3-Cl-4-CF3)]P[Ac5c][NMeGly(cPent)][NMeD]-Morpholide; lactam N-11) ?
a: 2

q: I am curious: what Kd value has been reported for `CCO[C@@H]1C[C@H]2C(=O)NC3(CC(C)(C)C3)C(=O)N(C)[C@@H](C3CCCC3)C(=O)N(C)[C@H](C(=O)N3CCCCC3)CC(=O)N(C)[C@@H](COC)C(=O)N[C@@H]([C@@H](C)CC)C(=O)N(C)CC(=O)N(C)[C@H]3C/C=C\CCN(C3=O)[C@@H](Cc3ccc(C(F)(F)F)cc3)C(=O)N(C)CC(=O)N[C@@H](CCc3ccc(Cl)c(Cl)c3)C(=O)N2C1` ?
a: 0.48

q: I am curious: what Kd value has been reported for CCCN1C(=O)CN(C)C(=O)CN(C)C(=O)[C@H]([C@@H](C)CC)NC(=O)[C@H](CC(C)C)N(C)C(=O)C[C@@H](C(=O)N2CCOCC2)N(C)C(=O)[C@H](C2CCCC2)N(C)C(=O)C2(CC2)NC(=O)[C@@H]2CCCN2C(=O)[C@H](CCc2ccc(C(F)(F)F)c(Cl)c2)NC(=O)CN(C)C(=O)[C@@H]1Cc1ccc(C(F)(F)F)cc1 [PP0229] ([NMeL]I[Sar][Sar][NPrPhe(4-CF3)][Sar][hPhe(3-Cl-4-CF3)]P[Ac3c][NMeGly(cPent)][NMeD]-Morpholide; lactam N-11) ?
a: 0.25

###

# pKd per record follows
System Tested: GDP-bound KRAS wild-type protein (Homo sapiens)
Experimental Details: Binding to KRAS by surface plasmon resonance (SPR), Single Cycle Kinetics
Details: SPR, Single Cycle Kinetics, GDP-bound KRAS wild-type protein; read-out: KRAS KD
# log scale: pKd equals minus log10 of the concentration in mol/L

q: Given the entry `CCC[C@H]1C(=O)N[C@@H]([C@@H](C)CC)C(=O)N2CCC[C@H]2C(=O)N(C)[C@H]2C/C=C\CCN(C2=O)[C@@H](Cc2ccc(C)cc2)C(=O)N(C)CC(=O)N[C@@H](CCc2ccc(C(F)(F)F)c(OC)c2)C(=O)N2C[C@H](OCC)C[C@H]2C(=O)N(C)C2(CCC2)C(=O)N(C)[C@@H](C2CCCC2)C(=O)N(C)[C@H](C(=O)N2CCCCC2)CC(=O)N1C` , what pKd was observed with GDP-bound KRAS wild-type protein (Homo sapiens)?
a: 9.54

q: Given the entry `CCOC[C@H]1C(=O)N[C@@H]([C@@H](C)CC)C(=O)N(C)CC(=O)N(C)[C@H]2C/C=C\CCN(C2=O)[C@@H](CC2CCCCC2)C(=O)N(C)CC(=O)N[C@@H](CCc2cc(F)c(C(F)(F)F)c(F)c2)C(=O)N2C[C@H](OCC)C[C@H]2C(=O)NC2(CC(C)(C)C2)C(=O)N(C)[C@@H](C(CC)CC)C(=O)N(C)[C@H](C(=O)N(C)C)CC(=O)N1C` , what pKd was observed with GDP-bound KRAS wild-type protein (Homo sapiens)?
a: 8.85

q: Given the entry `CCCOC[C@H]1C(=O)N[C@@H]([C@@H](C)CC)C(=O)N(C)CC(=O)N(C)[C@H]2C/C=C\CCN(C2=O)[C@@H](Cc2ccc(C(F)(F)F)cc2)C(=O)N(C)CC(=O)N[C@@H](CCc2cc(F)c(C(F)(F)F)c(F)c2)C(=O)N2C[C@@H](C)C[C@H]2C(=O)NC2(CC(C)(C)C2)C(=O)N(C)[C@@H](C2CCCC2)C(=O)N(C)[C@H](C(=O)N(C)CC)CC(=O)N1C` , what pKd was observed with GDP-bound KRAS wild-type protein (Homo sapiens)?
a: 9.68
